Source of measurements: ChEMBL document CHEMBL4513216

Could you please report measured cytotoxicity at 10 µM for the items listed next?
assay: Toxicity liver stage against HepG2, at 10uM; assay type: cell-based; set-up: test concentration 10 uM, cell line HepG2-A16-CD81EGFP; conditions: human, HepG2-A16-CD81EGFP cells; read-out: INHIBITION
Form entry: value (%) — number only.

**Query** Looking for the measured cytotoxicity at 10 µM of Cc1cnn(CC2CCCN2C(=O)c2ccc3nnc(C)n3c2)c1 (centres undefined) , can you help?
**Result** -8.11

**Query** Please do the same for `O=C1N[C@H]2OCCC[C@H]2[C@H](c2ccccc2)N1` as well.
**Result** -0.675

**Query** Please answer likewise for CC(c1ccon1)N(C)C(=O)C1CCN(CC(N)=O)CC1 (centres undefined)
**Result** -4.83

**Query** Next record, please: `CN(C)c1ccc(CNc2cncc(-n3cccn3)n2)cc1`
**Result** -7.31

**Query** Same read-out for COc1ccc(Br)cc1NCC(=O)NC(C)(C#N)C1CC1 (centres undefined) ?
**Result** 23.4

**Query** Then Cc1cc(C)cc(OCC(O)CN2CCN(c3nccs3)CC2)c1 (centres undefined) ?
**Result** -7.32

**Query** What do we get for `Cc1cncc(C2CCN(Cc3ccsc3)CC2)n1` ?
**Result** 4.86

**Query** Item: Cc1cc(C2CCCN2C(=O)CN(C)Cc2ccccc2)no1 (centres undefined)
**Result** 5.1

**Query** Also `CN(CC(=O)N1CCN(CC(C)(C)O)CC1)c1ccc(Cl)cn1` , if possible.
**Result** -2.87

----------
assay: Toxicity liver stage against HepG2, at 10uM; assay type: cell-based; set-up: test concentration 10 uM, cell line HepG2-A16-CD81EGFP; details: human, HepG2-A16-CD81EGFP cells; read-out: INHIBITION
Please go through the items and note down their cytotoxicity at 10 µM.
Quick note: give the figure in %, leave out the unit.

**Query** # query: cytotoxicity at 10 µM of entry Cc1ccc(C(=O)NCC2CCN(Cc3ccccc3C#N)C2)cn1 (configuration not stated)
**Result** 1.48

**Query** Now the compound `CNC(=O)c1ccc(-c2ccc(CNC(=O)COC)cc2)nc1C`
**Result** -5.52

**Query** Entry O=C(c1c[nH]cn1)N1CCC(F)(F)C2(CCN(c3cnccn3)C2)C1 (configuration not stated) please
**Result** 8.19

**Query** What about Cc1ncc(CNC(=O)CCc2ccccc2F)c(C2CCCN2C)n1 (configuration not stated) ?
**Result** -7.55

**Query** Then O=C(Nc1cccc(F)c1)C1CCCN1c1nccs1 (configuration not stated) ?
**Result** -4.72

**Query** # repeat for Cc1nnc2n1CCN(C(C(=O)N1CCCCC1)c1ccccc1)C2 (configuration not stated)
**Result** -5.83

**Query** Then what about the compound `CN(C)CC(=O)N1CCC2(CCc3ccc(-c4ccncc4)cc32)CC1` ?
**Result** 6.34

**Query** And for `O=C(NCc1ccccc1Cn1ccnc1)N1CCOCC1` ?
**Result** 0.84

**Query** Next up: `Cc1nc(N)nc(C)c1CC(=O)NCc1ccc2nonc2c1`
**Result** 5.6

**Query** Consider next the compound Cc1cc(C)n(C2CCCN(C(=O)c3cn4cccnc4n3)C2)n1 (configuration not stated) in the same way.
**Result** -4.62

**Query** What do you get for CCN1CCCC1CNC(=O)Cc1c(C)n[nH]c1-c1ccc(OC)cc1 (configuration not stated) ?
**Result** -3.72

**Query** Let us now turn to Cc1nccn1CCC1CCCCN1C(=O)c1ccc2nonc2c1 (configuration not stated)
**Result** -6.55

----------
For each of the compounds below, state its cytotoxicity at 10 µM.
assay: Toxicity liver stage against HepG2, at 10uM; type: cell-based; set-up: test concentration 10 uM, cell line HepG2-A16-CD81EGFP; settings: human, HepG2-A16-CD81EGFP cells; read-out: INHIBITION
Reply with just the number (in %).

**Query** Request the reported cytotoxicity at 10 µM associated with `Cc1ccc(-c2cc(C(=O)NCCCc3csc(N)n3)[nH]n2)o1`
**Result** 79.5

**Query** Now the compound `CN(C)CCNc1cc(-c2ccccc2C(N)=O)c2cc[nH]c2n1`
**Result** 0.343

**Query** Request: COc1cccc(CNC(C)Cn2cccn2)c1OC (stereo not given)
**Result** -4.84

**Query** Also, `COCCCNC(=O)c1cc(-c2cnc(N(C)C)nc2)cn1CC1CC1` please.
**Result** 2.28

**Query** Also need `Cc1ccc(O)c(CN2CCc3nc(-c4cccnc4)nc(O)c3C2)c1` , thanks.
**Result** 5.19

**Query** What would you report for COCCNC(=O)C1CN(Cc2cccnc2)Cc2ccnn2C1 (stereo not given) ?
**Result** -76.1

**Query** Cool, now `CSc1ncc(C(=O)N2C[C@@H]3CC[C@H]2CN(Cc2ccccc2)C3)cn1`
**Result** -7.49

**Query** Proceed to CCc1n[nH]c(C2CN(Cc3nc(C4CC4)no3)CCO2)n1 (stereo not given)
**Result** -10.8

**Query** Same thing, different compound: CCn1nc(C(=O)N2CCCC2c2noc(C)n2)ccc1=O (stereo not given)
**Result** 4.99

**Query** Then `Cn1nc(CNC(=O)CN2C(=O)CCC2=O)cc1C1CC1` ?
**Result** 2.89

**Query** Cool, now `CS(=O)(=O)N1CC[C@H]2O[C@H](C(=O)NCCc3ccncc3)CC[C@H]21`
**Result** 4.41

**Query** How about this compound: `c1ccc(-c2nc(CCNCc3cccnc3)co2)cc1`
**Result** -5.35

**Query** Also `CC(C)N1CCC[C@H]1C(=O)NCC1CCN(c2cnn(C)c(=O)c2)CC1` ?
**Result** 4.75

**Query** Field entry: `O=C(C1CCC1)N1C[C@H]2CC[C@@H](C1)N(S(=O)(=O)c1cccnc1)C2`
**Result** -3.65

**Query** Input Cn1cc(C2CC3(CCN(C(=O)c4ccsc4)CC3)NC2=O)cn1 (stereo not given)
**Result** -3.7

----------
experiment: Toxicity liver stage against HepG2, at 10uM; format: cell-based; design: test concentration 10 uM, cell line HepG2-A16-CD81EGFP; details: human, HepG2-A16-CD81EGFP cells; read-out: INHIBITION
Provide the reported cytotoxicity at 10 µM of each item.
Express it in %; write the number only.

**Query** Which measured cytotoxicity at 10 µM value corresponds to `CN(C)CCN1CCO[C@H]2CN(Cc3ccccn3)C[C@H]21` ?
**Result** -1.91

**Query** // repeat for c1ccc(-n2cc(CNC3CCc4ncnn4C3)nn2)cc1 (stereo not drawn) and report
**Result** -4.01

**Query** Also need `CC(C)(CO)CNC(=O)c1cc(-c2cc[nH]n2)n2ccccc12` , thanks.
**Result** 20

----------
Hi there, I'd appreciate the recorded cytotoxicity at 10 µM for every entry that follows.
experiment: Toxicity liver stage against HepG2, at 10uM; format: cell-based; parameters: test concentration 10 uM, cell line HepG2-A16-CD81EGFP; details: human, HepG2-A16-CD81EGFP cells; read-out: INHIBITION
Output spec: scalar in %, unitless text.

**Query** I would be grateful if you could share the reported cytotoxicity at 10 µM for `Cc1cc(CN(C)C(=O)c2ccc(Cl)cc2N2CCCC2=O)no1` .
**Result** -15.9

**Query** Same question, `Cn1ccc2ccc(C(=O)Nc3nc[nH]n3)cc21` this time
**Result** -1.55

**Query** For `Cn1ncc(NC(=O)c2noc3c2CCCC3)c1C(N)=O` then?
**Result** 5.8

**Query** How about `COc1ccc(CN2C[C@@H](CN(C)CCO)[C@@H](CO)C2)cc1Cl` ?
**Result** -5.88

**Query** Then `CC(C)c1ncc(CNC2(c3ccc(Cl)cc3)CC2)cn1` ?
**Result** -32.3

**Query** Further, for `CC1(C)CNC(=O)c2nc(CCN3CCOCC3)[nH]c2C1` ?
**Result** -10.7

**Query** For `O=C(O)C1(n2ccc(-c3ccco3)n2)CCN(Cc2ccccn2)CC1` then?
**Result** -137

**Query** What about this molecule? `O=C([C@@H]1CC[C@@H]2[C@@H](CCN2Cc2cccs2)O1)N1CCCCO1`
**Result** -2.33

**Query** Try this molecule too: Cc1nn(Cc2ccccc2)c(C)c1CNC1CCc2ncnn2C1 (stereo not drawn)
**Result** -1.04

**Query** Lookup Cn1nccc1-c1cncc(C2CCCN(S(C)(=O)=O)C2)n1 (stereo not drawn)
**Result** 6.62

**Query** Further, for `Cc1nonc1NC(=O)CCn1cc(Br)ccc1=O` ?
**Result** 0.297

**Query** Also check `N#Cc1cnc(N2CCC3(CC2)OCCO3)nc1N`
**Result** 3.51

**Query** Also need `CCSc1cc(C(=O)N(C(C)C)C2CC2)ccn1` , thanks.
**Result** 6.27

**Query** Continue with `COc1cccc2c1ccn2CCNC(=O)C1CCC1`
**Result** -3.54

**Query** Field entry: `Cc1c[nH]c(CN2CCCn3nc(CNS(C)(=O)=O)cc3C2)n1`
**Result** 1.79

**Query** Further, for `O=S(=O)(NCCN1CC=CC1)c1cncc(Cl)c1` ?
**Result** -2.42

**Query** Follow-up entry: `Cc1nn(C)c(N(C)C)c1CNCCCN(C)S(C)(=O)=O`
**Result** -4.07

**Query** Lookup Cc1cnn(CC2CCCN2Cc2nc(C)c3ccccc3n2)c1 (stereo not drawn)
**Result** -8.94

**Query** Also need `Cc1ccc2c(CC(=O)N3C[C@@H](O)[C@H](N(C)C)C3)coc2c1` , thanks.
**Result** 10.4

**Query** Field entry: `Cc1noc(CN(Cc2cccc(C#N)c2)Cc2ccco2)n1`
**Result** 0.554

**Query** Next molecule: `Fc1cnc(N2CC[C@@H](N3CCOCC3)[C@@H]2Cc2ccncc2)nc1`
**Result** 0.81

**Query** Okay, and OCC(O)CSCc1cn(-c2ccc(Cl)c(Cl)c2)nn1 (stereo not drawn) ?
**Result** 8.55

**Query** Item: Cc1cc(NC(=O)c2nn(C3CCS(=O)(=O)C3)c3c2CCCC3)no1 (stereo not drawn)
**Result** 3.85

**Query** Moving on to `O=C(Cc1csc(-c2ccoc2)n1)NCCC(=O)N1CCCCC1`
**Result** 9.13

**Query** Could you do the same for `CCN(CC)CCn1cc(NC2CCSCC2)cn1` , please?
**Result** 2.5

**Query** Subsequent entry: CC(NC(=O)c1cc(=O)n(C)c(=O)n1C)c1ccccc1-n1cccn1 (stereo not drawn)
**Result** -9.47

**Query** Next record, please: `O=C(Cc1csc(-c2cccc(Cl)c2)n1)NCc1cccc(C(=O)O)c1`
**Result** -0.0616

**Query** Please do the same for `CCc1nnc(N2C[C@@H](CN(C)CCO)[C@@H](CO)C2)s1` as well.
**Result** -5.61

**Query** Param item: `CNc1ncc(CN(C)C(=O)c2c[nH]nc2-c2cccc(F)c2)cn1`
**Result** -4.69

**Query** Same read-out for `Cn1cccc1C(=O)N1CCO[C@@H]2CN(Cc3nccs3)C[C@@H]2C1` ?
**Result** -103

**Query** Now give it for `COCC(=O)N1CCN(c2ncnc3cccc(F)c23)CC1` too.
**Result** 6.37

**Query** What do you get for `O=C(NCc1nnc2n1CCCCC2)N1CCc2ccccc2C1` ?
**Result** 4.66

**Query** For `Cc1ccc(-n2cc(S(=O)(=O)Nc3cccc(C(=O)O)c3C)cn2)cc1` then?
**Result** -1.74

**Query** Also check `CC(C)NC(=O)CN(C)C1CCN(c2ccc(Cl)cn2)CC1`
**Result** 3.5

**Query** Please answer likewise for `Cc1nc(N2CCN(C(=O)c3cccs3)CC2)cc(-n2cccc2)n1`
**Result** 1.01

**Query** What about this molecule? `Cc1cc(C(=O)NCc2ccnc(OCC(F)(F)F)c2)on1`
**Result** -9.63

**Query** And then CCn1ncc2c1NC(=O)CC2c1cnc(NCc2ccccc2)nc1 (stereo not drawn) , what is it?
**Result** -6.27

**Query** Same for COCC(O)CN1CCC(=O)N(CC2CC2)Cc2ccccc21 (stereo not drawn)
**Result** 2.76
